Attribution: ChEMBL document CHEMBL4265889

Exercise: for every item that follows, state its recorded pIC50.
The meaning of pIC50 here: minus log10 of the concentration in molar units.

Form field, pIC50 with Voltage-gated inwardly rectifying potassium channel KCNH2 (Homo sapiens), item `CCC[C@@H](CCO)Nc1nc(N)nc2c1CN(C(=O)c1cccs1)CC2` : 5.12

Form field, pIC50 with Voltage-gated inwardly rectifying potassium channel KCNH2 (Homo sapiens), item `CCCCNc1nc(N)nc2c1CN(C(=O)c1csc(C)n1)CC2` : 5.89

Form field, pIC50 with Voltage-gated inwardly rectifying potassium channel KCNH2 (Homo sapiens), item `CCC[C@@H](CCO)Nc1nc(N)nc2c1CN(C(=O)c1csc(C)n1)CC2` : 4.66

Form field, pIC50 with Voltage-gated inwardly rectifying potassium channel KCNH2 (Homo sapiens), item `CCCC[C@@H](CCO)Nc1nc(N)nc2c1CN(C(=O)c1cccs1)CC2` : 5.16
